tested on: UACC-62; experiment: NCI tumour cell line growth inhibition, 48 h
Activity calls are given as the source filed them. No stated cut-off is given here; in the data, active = GI50 up to about 1.1 µM and inactive = higher.
Outcome codes: active, inactive

* CC1CC(Br)C(=O)O1 (stereo not given) | inactive
* CN1C(=O)c2ccccc2NC(=O)C12O[C@@H]2c1ccccc1 (stereo not given in full) | inactive
* O=C(Nc1sccc1S(=O)(=O)c1ccccc1)c1cccnc1 | inactive
* O=C(COc1ccc(/C=C/C(=O)c2ccc(Cl)cc2)cc1)Nc1c(Cl)cccc1Cl | inactive
* C=C(Br)C/N=C/N(C)C | inactive
* O=C1Nc2ccc(Br)cc2/C1=N/S(=O)(=O)O | inactive
* CCOC(=O)c1[nH]cc(C)c1-c1c[nH]c2ccccc12 | inactive
* CN1CC2(CCCCC2)C(O)C12C=CCCC2 (stereo not given) | inactive
* Nc1nc2[nH]cnc2c(=O)[nH]1 | inactive
* CCOC(=O)C/N=c1\nc(SC)sc2c(C(=O)OCC)nc(Sc3ccccc3)n12 | inactive
* COC(=O)CCC(=O)Nc1cccc(C(F)(F)F)c1 | inactive
* CC(C)OC(=O)Nc1c([N+](=O)[O-])cc(C(F)(F)F)cc1[N+](=O)[O-] | inactive
* Nc1ccccc1/C(O)=C1/CCOC1=O | inactive
* COc1ccc(-c2nc3ncccn3c2-c2ccc(SC)cc2)cc1 | active
* S=C1SCC2CCCN12 (stereo not given) | inactive
